Test system: PPARg:RXRa 30nM:10nM, anti-RXR (NR concentration 30 nM, RXRa partner concentration 10 nM)
Assay: PBM binding z-score (relative to random genomic background probes); higher = stronger binding; sequences stand for … in GC…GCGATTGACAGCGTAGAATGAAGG
Readout Label: PBM binding z-score
Would you mind answering with just the numeric figure?

Input line: If you can, please state the reported PBM binding z-score value of `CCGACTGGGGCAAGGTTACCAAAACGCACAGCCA` .
Output line: 1.01

Input line: Which measured PBM binding z-score value corresponds to `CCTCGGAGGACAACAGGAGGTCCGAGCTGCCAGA` ?
Output line: -0.862

Input line: Consider the sequence `TCGAGTAGGTTAGTCGCGGCATTCAGCCAACATA` and give its measured PBM binding z-score.
Output line: 1.03

Input line: Look at this sequence and give its reported PBM binding z-score. `ATCTCTAGGTAACCGAGTTCAGTGAATGCCGAAC`
Output line: -0.103

Input line: For the sequence `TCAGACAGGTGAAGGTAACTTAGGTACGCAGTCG` , what PBM binding z-score is on record?
Output line: 4.08

Input line: Fill blank: measured PBM binding z-score of the sequence `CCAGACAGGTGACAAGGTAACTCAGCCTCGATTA` is ____.
Output line: -0.365

Input line: Item under review: `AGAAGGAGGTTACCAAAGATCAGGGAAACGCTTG` . Reported PBM binding z-score?
Output line: 0.736

Input line: What value of PBM binding z-score has been reported for the following sequence? `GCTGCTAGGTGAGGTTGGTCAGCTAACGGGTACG`
Output line: -1.04

Input line: Please report the recorded PBM binding z-score for `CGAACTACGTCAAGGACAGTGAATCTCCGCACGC` .
Output line: -0.403

Input line: Quick one: PBM binding z-score for `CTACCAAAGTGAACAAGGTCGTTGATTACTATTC` ?
Output line: 0.23

Input line: Item `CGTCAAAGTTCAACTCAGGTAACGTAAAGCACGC` has what recorded PBM binding z-score?
Output line: 2.08

Input line: Look up PBM binding z-score for this sequence: `GATACAGGGTCAGCTAGAGGCCAGCGTATGGAAA`
Output line: 0.694

Input line: // lookup PBM binding z-score for `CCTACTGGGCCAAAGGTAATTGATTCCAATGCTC`
Output line: 6.87

Input line: Tell me the measured PBM binding z-score of `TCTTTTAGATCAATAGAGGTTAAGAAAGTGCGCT` , please.
Output line: 3.57

Input line: Entry under review: `GCGACTGGGGCATCCGCAGGTTACCATAACTTAA` . Reported PBM binding z-score?
Output line: -0.543

Input line: For the sequence shown here, `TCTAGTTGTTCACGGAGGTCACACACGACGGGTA` , give the reported PBM binding z-score.
Output line: 3.43

Input line: Bench note: what PBM binding z-score did `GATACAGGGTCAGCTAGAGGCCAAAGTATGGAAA` show?
Output line: 1.03

Input line: Can you look up the measured PBM binding z-score of `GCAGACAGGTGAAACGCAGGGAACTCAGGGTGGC` for me?
Output line: -0.526

Input line: // lookup PBM binding z-score for `GGAACGAGGGCATTCGAGTGGATAGCATGGCGAT`
Output line: -0.34

Input line: Given the entry `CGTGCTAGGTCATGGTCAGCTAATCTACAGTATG` , report its measured PBM binding z-score.
Output line: 0.471

Input line: Which value of PBM binding z-score has been reported for `GGAACTAGGGCATTCGAGTTGATAGCATGGCGAT` in the records?
Output line: 0.86

Input line: # PBM binding z-score lookup, item `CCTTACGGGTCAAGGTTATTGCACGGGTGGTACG`
Output line: 2.03

Input line: Fill blank: measured PBM binding z-score of the sequence `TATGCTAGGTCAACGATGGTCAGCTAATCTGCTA` is ____.
Output line: 0.716

Input line: # input sequence: `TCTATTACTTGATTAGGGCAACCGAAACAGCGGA` ; wanted: its PBM binding z-score
Output line: 3.76

Input line: Entry `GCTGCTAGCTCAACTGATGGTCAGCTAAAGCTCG` has what PBM binding z-score?
Output line: -1.24

Input line: // query PBM binding z-score value for entry `TCATATAGGTAAATGCTAGGTGAACGTCCGATCT`
Output line: 3.51

Input line: I would be grateful if you could share the reported PBM binding z-score for `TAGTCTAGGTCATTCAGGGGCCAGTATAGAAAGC` .
Output line: 2.33

Input line: Quick check: PBM binding z-score of `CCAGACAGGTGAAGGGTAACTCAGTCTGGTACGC` ?
Output line: 1.6

Input line: Item `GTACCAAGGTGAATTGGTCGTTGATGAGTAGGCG` has what recorded PBM binding z-score?
Output line: -0.286
